Molecular target: Glycogen synthase kinase-3 beta (Homo sapiens)
Assay: Inhibition of GSK3-beta expressed in H10075 yeast assessed as growth inhibition at 2.5 ug/disk after 72 hrs at 37 degreeC by disc diffusion method
Activity calls are given as the source filed them. No cut-off for these calls is given here.
endpoint: inhibition zone (IZ)

C[C@H]1C[C@H](C)C(=O)[C@@H]([C@H](O)CC2CC(=O)NC(=O)C2)C1: inactive
Cn1sc(=O)n(Cc2ccccc2)c1=O: inactive
CC/C=C(\C)C(=O)CC(O)CC1CC(=O)NC(=O)C1 (centres undefined): 28 mm
C[C@@H]1C[C@@H]([C@H](O)CC2CC(=O)NC(=O)C2)C(=O)[C@@H](C)C1: 42 mm

Data origin: ChEMBL document CHEMBL1154251
